# Test system: Saccharomyces cerevisiae BY4741 SeMeCo community
# run.description: z-score of subpopulation abundance vs DMSO median, subpopulation auxotrophic for HLUM; higher = larger share of this subpopulation than in DMSO controls
# condition.context: 10 µM; 24 h; SM minimal medium; subpopulation (auxotrophy): HLUM
Where a name gives a salt, the structure may show the parent alone.
Label Condition met when z-score of subpopulation abundance is at or above -0.1; otherwise label Condition not met.

Reference set, count: 5
Clc1ccc(CCC(Cn2ccnc2)Sc2c(Cl)cccc2Cl)cc1 (centres undefined) [Butoconazole]	Condition met
COCCOC(=O)C1=C(C)NC(C)=C(C(=O)OC(C)C)C1c1cccc([N+](=O)[O-])c1 (centres undefined)	Condition not met
CS(=O)(=O)c1ccc([C@@H](O)[C@@H](CO)NC(=O)C(Cl)Cl)cc1	Condition not met
CN1[C@@H]2CC[C@H]1C[C@@H](OC(c1ccccc1)c1ccccc1)C2 [Benztropine mesylate]	Condition not met
CC(C)(O/N=C(\C(=O)N[C@@H]1C(=O)N2C(C(=O)[O-])=C(C[n+]3ccccc3)CS[C@H]12)c1csc(N)n1)C(=O)O	Condition not met

### Prompt Please check the record COc1c(N2C[C@@H]3CCCN[C@@H]3C2)c(F)cc2c(=O)c(C(=O)O)cn(C3CC3)c12 [Moxifloxacin HCl] and state if its z-score of subpopulation abundance is at or above -0.1.
### Response Condition met

### Prompt Please check the record COc1ccc2cc3[n+](cc2c1OC)CCc1cc2c(cc1-3)OCO2 [Berberine chloride] and state if its z-score of subpopulation abundance is at or above -0.1.
### Response Condition not met

### Prompt Please check the record CCCc1nn(C)c2c(=O)[nH]c(-c3cc(S(=O)(=O)N4CCN(C)CC4)ccc3OCC)nc12 [Sildenafil Citrate] and state if its z-score of subpopulation abundance is at or above -0.1.
### Response Condition not met

### Prompt Please check the record O=C(Cn1cnnn1)N[C@@H]1C(=O)N2C(C(=O)O)=C(CSc3nncs3)CS[C@H]12 [Ceftezole sodium] and state if its z-score of subpopulation abundance is at or above -0.1.
### Response Condition met

* * *

# Tested on: Saccharomyces cerevisiae BY4741 SeMeCo community
# run.description: z-score of subpopulation abundance vs DMSO median, subpopulation auxotrophic for HM; higher = larger share of this subpopulation than in DMSO controls
# condition.context: 10 µM; 24 h; SM minimal medium; subpopulation (auxotrophy): HM
reported.metric: z-score of subpopulation abundance

Here are 2 compounds together with their reported answers.
C=CCc1ccc(O)c(-c2ccc(O)c(CC=C)c2)c1 [Honokiol]	-0.9
CO[C@H]1C[C@@H]2CC[C@@H](C)[C@@](O)(O2)C(=O)C(=O)N2CCCC[C@H]2C(=O)O[C@H]([C@H](C)C[C@@H]2CC[C@@H](O)[C@H](OC)C2)CC(=O)[C@H](C)/C=C(\C)[C@@H](O)[C@@H](OC)C(=O)[C@H](C)C[C@H](C)/C=C/C=C/C=C/1C [Rapamycin (Sirolimus)]	21.4

### Prompt Look up and state reported z-score of subpopulation abundance for CC(=O)OCC(CCn1cnc2cnc(N)nc21)COC(C)=O [Famciclovir]
### Response 0.41

* * *

# Tested on: Saccharomyces cerevisiae BY4741 SeMeCo community
# run.description: z-score of subpopulation abundance vs DMSO median, subpopulation auxotrophic for M; higher = larger share of this subpopulation than in DMSO controls
# condition.context: 10 µM; 24 h; SM minimal medium; subpopulation (auxotrophy): M
Structures can show the parent of a compound that is named as a salt.
Each item that follows carries a reported z-score of subpopulation abundance.
// no unit string in output, number only

Here are 2 molecules together with their reported answers.
CC1=C[C@H]2C(=O)O[C@H]3C[C@@H](C/C=C(\C)C[C@@H](C)/C=C/C=C4\CO[C@H](/C1=N\O)[C@@]42O)O[C@@]1(CC[C@H](C)[C@@H](C)O1)C3.CC[C@H]1O[C@]2(CC[C@@H]1C)C[C@@H]1C[C@@H](C/C=C(\C)C[C@@H](C)/C=C/C=C3\CO[C@@H]4/C(=N\O)C(C)=C[C@@H](C(=O)O1)[C@]34O)O2 [Milbemycin Oxime]	-1.4
COc1ccc2[nH]c([S@@+]([O-])Cc3ncc(C)c(OC)c3C)nc2c1 [NEXIUM (esomeprazole magnesium)]	0.2

Next molecule, please.
### Prompt Look up and state reported z-score of subpopulation abundance for CNCCC(Oc1ccc(C(F)(F)F)cc1)c1ccccc1 (stereo not drawn) [Fluoxetine HCl]
### Response 0.18

* * *

# Test system: Saccharomyces cerevisiae BY4741 SeMeCo community
# run.description: z-score of subpopulation abundance vs DMSO median, subpopulation auxotrophic for HLM; higher = larger share of this subpopulation than in DMSO controls
# condition.context: 10 µM; 24 h; SM minimal medium; subpopulation (auxotrophy): HLM
Structures can show the parent of a compound that is named as a salt.
Label Satisfied when z-score of subpopulation abundance is at or above 0.06; otherwise label Not satisfied.

Reference set, count: 6
Cc1c(Nc2ncccc2C(=O)O)cccc1C(F)(F)F	Not satisfied
NC(=O)c1cnccn1 [Pyrazinamide]	Not satisfied
Fc1ccc([C@@H]2CCNC[C@H]2COc2ccc3c(c2)OCO3)cc1 [Paroxetine mesylate]	Satisfied
Cc1nc(NC(=O)N2CCC[C@H]2C(N)=O)sc1-c1ccnc(C(C)(C)C(F)(F)F)c1	Not satisfied
N[C@@H]1CONC1=O	Satisfied
Cc1c(Cl)cccc1Nc1ccccc1C(=O)O	Not satisfied

### Prompt Please check the record Cc1ncc([N+](=O)[O-])n1CC(C)O (centres undefined) and state if its z-score of subpopulation abundance is at or above 0.06.
### Response Not satisfied

### Prompt Please check the record Cc1c(-c2ccccc2)oc2c(C(=O)OCCN3CCCCC3)cccc2c1=O [Flavoxate HCl] and state if its z-score of subpopulation abundance is at or above 0.06.
### Response Satisfied

* * *

# Test system: Saccharomyces cerevisiae BY4741 SeMeCo community
# run.description: z-score of subpopulation abundance vs DMSO median, subpopulation auxotrophic for HU; higher = larger share of this subpopulation than in DMSO controls
# condition.context: 10 µM; 24 h; SM minimal medium; subpopulation (auxotrophy): HU
Counter-ions that a name gives are not always drawn.
Label fulfilled when z-score of subpopulation abundance is at or above 0.9; otherwise label not fulfilled.

CN1CCc2cc3c(cc2C(=O)Cc2ccc4c(c2C1)OCO4)OCO3	not fulfilled
CC[C@@H]1C(=O)OC[C@@H]1Cc1cncn1C [Pilocarpine HCl]	not fulfilled
O=C1C(=O)c2ccccc2C(O)=C1C1CCC(c2ccc(Cl)cc2)CC1 (stereo not drawn)	fulfilled

### Prompt Please check the record COc1cc(O)c(C(=O)Nc2nc(C(=O)NCCN(C(C)C)C(C)C)cs2)cc1OC [Acotiamide] and state if its z-score of subpopulation abundance is at or above 0.9.
### Response not fulfilled

### Prompt Please check the record `O=C(Cn1ccnc1[N+](=O)[O-])NCc1ccccc1` and state if its z-score of subpopulation abundance is at or above 0.9.
### Response not fulfilled

### Prompt Please check the record `C[C@@H]1CC(=O)NN=C1c1ccc(NN=C(C#N)C#N)cc1` and state if its z-score of subpopulation abundance is at or above 0.9.
### Response not fulfilled

### Prompt Please check the record Clc1ccc(COC(Cn2ccnc2)c2ccc(Cl)cc2Cl)c(Cl)c1 (stereo not drawn) [Miconazole Nitrate] and state if its z-score of subpopulation abundance is at or above 0.9.
### Response fulfilled

### Prompt Please check the record `CC[C@H](C)C(=O)O[C@H]1C[C@H](O)C=C2C=C[C@H](C)[C@H](CC[C@@H](O)C[C@@H](O)CC(=O)O)[C@H]21` and state if its z-score of subpopulation abundance is at or above 0.9.
### Response fulfilled

* * *

# Test system: Saccharomyces cerevisiae BY4741 SeMeCo community
# run.description: z-score of subpopulation abundance vs DMSO median, subpopulation auxotrophic for L; higher = larger share of this subpopulation than in DMSO controls
# condition.context: 10 µM; 24 h; SM minimal medium; subpopulation (auxotrophy): L
Each item that follows carries a reported z-score of subpopulation abundance.
// no unit string in output, number only

Here are 6 molecules together with their reported answers.
C=CC[C@@H]1/C=C(\C)C[C@H](C)C[C@H](OC)[C@H]2O[C@@](O)(C(=O)C(=O)N3CCCC[C@H]3C(=O)O[C@H](/C(C)=C/[C@@H]3CC[C@@H](O)[C@H](OC)C3)[C@H](C)[C@@H](O)CC1=O)[C@H](C)C[C@@H]2OC	0.71
COc1ccc2c(c1)c(CC(=O)O)c(C)n2C(=O)c1ccc(Cl)cc1	0.48
CC(C)[N+]1(C)[C@@H]2CC[C@H]1C[C@@H](OC(=O)C(CO)c1ccccc1)C2 (some centres not stated) [Ipratropium Bromide]	0.58
CCOC(=O)C1=C(C)NC(C)=C(C(=O)OCC)C1c1ccccc1/C=C/C(=O)OC(C)(C)C	1.08
Cc1nc(NC(=O)N2CCC[C@H]2C(N)=O)sc1-c1ccnc(C(C)(C)C(F)(F)F)c1	-1.04
C[C@H]1COc2c(N3CCN(C)CC3)c(F)cc3c(=O)c(C(=O)O)cn1c23 [Levofloxacin]	-0.45

### Prompt System Saccharomyces cerevisiae BY4741 SeMeCo community. Read-out z-score of subpopulation abundance. Item `O=c1[nH]cnc2c1ncn2[C@@H]1O[C@H](CO)[C@@H](O)[C@H]1O` . Report value.
### Response -0.33

All figures here come from the supplement of paper PMC8975748.
